Origin of the recorded values: patent US20240270821A1

# Target Or System: hGLP-1R (Homo sapiens, UniProt P43220)
# Sequence (P43220 24-463): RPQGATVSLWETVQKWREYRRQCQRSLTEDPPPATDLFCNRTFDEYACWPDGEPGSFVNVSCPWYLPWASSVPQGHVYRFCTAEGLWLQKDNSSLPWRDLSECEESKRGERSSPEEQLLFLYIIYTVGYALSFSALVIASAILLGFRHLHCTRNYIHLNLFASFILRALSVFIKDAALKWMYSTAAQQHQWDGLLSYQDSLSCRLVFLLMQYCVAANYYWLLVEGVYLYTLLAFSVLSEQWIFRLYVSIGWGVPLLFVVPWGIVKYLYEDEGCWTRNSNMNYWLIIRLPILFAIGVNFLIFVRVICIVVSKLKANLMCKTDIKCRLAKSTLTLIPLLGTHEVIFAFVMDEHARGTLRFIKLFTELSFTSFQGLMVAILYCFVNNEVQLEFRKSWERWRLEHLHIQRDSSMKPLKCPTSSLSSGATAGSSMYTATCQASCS
# Assay Method Text: cell-based or functional assay
Readout Label: log10 of Relative cAMP EC50 (log10 of the value in nM)
Response schema: value (number) is log10 of Relative cAMP EC50 in units of nM.

Look over these answered cases.
Given YXQGTFTSDXSQXLDKKAQXAFIEYLLEAGPSSXAPPPSGT (C-terminal amide; acylated; synthetic construct; SITE 2: note = 2-Aminoisobutyric Acid; SITE 10: note = 3-(4-Pyridyl)-L-alanine; SITE 13: note = alpha-methyl-leucine; SITE 17: note = Lysine is chemically modified through conjugation of the epsilon-amino group of the Lysine side chain with (2-[2-(2-Amino-ethoxy)-ethoxy]-acetyl)) [Example 824] , respond with its log10 of Relative cAMP EC50. 0.39

Annotate the binder YXQGTFTSDFSXXLDKKAQXAFIEYLLEAGPSSGAPPPSGS (Aib, Orn, αMeL, D-Ala; acylated Lys; synthetic construct; SITE 2: note = 2-Aminoisobutyric Acid; SITE 12: note = L-ornithine; SITE 13: note = alpha-methyl-leucine; SITE 17: note = Lysine is chemically modified through conjugation of the epsilon-amino group of the Lysine side chain with (2-[2-(2-Amino-ethoxy)-ethoxy]-acetyl)-(gamma-Glu)) [Example 212] with its measured log10 of Relative cAMP EC50. 0.13

Answer with reported log10 of Relative cAMP EC50 of YXQGTXTSDXSILLDKKAQXAFIEXLEEGGPSSGAPPPSGEGE (synthetic construct; SITE 2: note = 2-Aminoisobutyric Acid; SITE 6: note = alpha-methyl-2-fluoro-L-phenylalanine; SITE 10: note = 3-(4-Pyridyl)-L-alanine; SITE 17: note = Lysine is chemically modified through conjugation of the epsilon-amino group of the Lysine side chain with (gamma-Glu)2-CO-(CH2)1) [Example 667 (SEQ ID NO: 673)] -0.38

Give the reported value of log10 of Relative cAMP EC50 for this record: YXQGTXTSDXXIXLDXKAAXEFIEXLVEGGPSSGAPPPSGS (synthetic construct; SITE 2: note = 2-Aminoisobutyric Acid; SITE 6: note = alpha-methyl-2-fluoro-L-phenylalanine; SITE 10: note = 3-(4-Pyridyl)-L-alanine; SITE 11: note = alpha-methyl-L-serine; SITE 13: note = alpha-methyl-leucine; SITE 16: note = L-ornithine; SITE 17: note = Lysine is chemically mo) [Example 693 (SEQ ID NO: 699)] -0.79

// fetch log10 of Relative cAMP EC50 given entry YXQGTFTSDXXQXLDXKAQXQFIQXLLEXGPSSGAPPPSGGGE (not fully specified; non-natural residues, acylated Lys, C-terminal amide; synthetic construct; SITE 2: note = 2-Aminoisobutyric Acid; SITE 10: note = 3-(4-Pyridyl)-L-alanine; SITE 11: note = alpha-methyl-L-serine; SITE 13: note = alpha-methyl-leucine; SITE 16: note = L-ornithine; SITE 17: note = Lysine is chemically modified through conjugation of the epsilon-amino group) [Example 1138] 0.29

Next:
Read off the recorded log10 of Relative cAMP EC50 for YXQGTFTSDFSKXLDKKAQXAFIEYLLEXGPSSGAPPPSEG (synthetic construct; SITE 2: note = 2-Aminoisobutyric Acid; SITE 13: note = alpha-methyl-leucine; SITE 17: note = Lysine is chemically modified through conjugation of the epsilon-amino group of the Lysine side chain with (2-[2-(2-Amino-ethoxy)-ethoxy]-acetyl)-(gamma-Glu)-CO-(CH2) 16-CO2H; SITE 20: n) [Example 57] 0.49
